Give measured inhibition for each item. Keep answers brief.
Biological target: Ubiquitin carboxyl-terminal hydrolase 8 (Homo sapiens) (UniProt P40818)
Sequence (P40818 whole entry, looked up): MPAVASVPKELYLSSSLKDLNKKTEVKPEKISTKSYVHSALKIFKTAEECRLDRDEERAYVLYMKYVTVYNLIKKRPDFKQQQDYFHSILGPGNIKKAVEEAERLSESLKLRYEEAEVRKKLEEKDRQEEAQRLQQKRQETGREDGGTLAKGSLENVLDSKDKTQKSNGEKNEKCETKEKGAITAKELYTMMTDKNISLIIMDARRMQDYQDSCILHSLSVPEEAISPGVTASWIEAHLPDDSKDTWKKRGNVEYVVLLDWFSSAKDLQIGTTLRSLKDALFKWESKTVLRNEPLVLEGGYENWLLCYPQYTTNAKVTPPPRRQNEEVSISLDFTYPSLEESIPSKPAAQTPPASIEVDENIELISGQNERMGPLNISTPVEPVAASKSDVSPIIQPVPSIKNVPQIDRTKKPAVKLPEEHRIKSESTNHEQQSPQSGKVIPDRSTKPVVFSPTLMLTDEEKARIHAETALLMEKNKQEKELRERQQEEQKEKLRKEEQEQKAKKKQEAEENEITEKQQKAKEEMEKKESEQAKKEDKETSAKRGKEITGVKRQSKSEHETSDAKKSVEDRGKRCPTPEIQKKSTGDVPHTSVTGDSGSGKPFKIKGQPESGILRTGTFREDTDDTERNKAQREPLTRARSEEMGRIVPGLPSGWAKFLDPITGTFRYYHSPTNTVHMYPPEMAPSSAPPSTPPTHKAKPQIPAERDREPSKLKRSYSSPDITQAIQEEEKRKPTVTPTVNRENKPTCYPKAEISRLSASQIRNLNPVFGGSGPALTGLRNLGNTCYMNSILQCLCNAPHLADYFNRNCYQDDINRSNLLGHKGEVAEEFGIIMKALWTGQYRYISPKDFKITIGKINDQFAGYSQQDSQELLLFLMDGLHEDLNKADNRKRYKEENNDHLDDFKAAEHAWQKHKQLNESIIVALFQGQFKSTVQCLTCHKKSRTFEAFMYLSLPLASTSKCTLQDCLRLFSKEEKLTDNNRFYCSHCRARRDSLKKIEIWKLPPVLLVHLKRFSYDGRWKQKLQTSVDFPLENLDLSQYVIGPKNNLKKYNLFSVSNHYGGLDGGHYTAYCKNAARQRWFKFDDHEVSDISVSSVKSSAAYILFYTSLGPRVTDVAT
Assay: blocks human USP8 ubiquitin-rhodamine cleavage (AID 1645853)
Details: purified USP8, Ub-rhodamine cleavage fluorescence, 30 min; at 20 µM; stronger effect = higher value
The whole screen tested about 47,000 compounds, of which about 2,000 (4.3%) were called active. This excerpt belongs to a sample that is enriched for actives.
Report as a plain number; the unit % is understood.

Param readout= inhibition; system= Ubiquitin carboxyl-terminal hydrolase 8 (Homo sapiens) (UniProt P40818); entry= CCCNc1cc(N2CCCC(CCC(=O)N3CCC(C)CC3)C2)ncn1 (stereo not drawn) ; returns value.
-110

Param readout= inhibition; system= Ubiquitin carboxyl-terminal hydrolase 8 (Homo sapiens) (UniProt P40818); entry= `CC(C)(C)NC(=O)CSc1nc2[nH]c(=O)cc(O)c2s1` ; returns value.
-9.23

Param readout= inhibition; system= Ubiquitin carboxyl-terminal hydrolase 8 (Homo sapiens) (UniProt P40818); entry= `COc1ccccc1NS(=O)(=O)c1ccc2oc(Nc3ccc(Cl)c(C(F)(F)F)c3)nc2c1` ; returns value.
-24.6

====

Target: Ubiquitin carboxyl-terminal hydrolase 8 (Homo sapiens)
Test: blocks human USP8 ubiquitin-rhodamine cleavage (AID 1645853)
Conditions: purified USP8, Ub-rhodamine cleavage fluorescence, 30 min; at 20 µM
The whole screen tested about 47,000 compounds, of which about 2,000 (4.3%) were called active. Cut-off read from the data, not from the text of the source: active = inhibition above about 30%; inactive = the rest. The entries come from a sample that favours actives as a whole.
Write down one outcome, taken from T = active, F = inactive

Identify the outcome logged in this assay for the compound shown: `CN1C[C@H]2C[C@H](C(=O)Nc3ccc4c(c3)OCO4)[C@@H](C1)O2`
F

Identify the outcome logged in this assay for the compound shown: Cc1ccnc(C2CN(C(=O)CCn3cnc4ccccc43)CCO2)n1 (stereo not given)
F

Identify the outcome logged in this assay for the compound shown: `Cc1ccc(CSc2nnc(/C=C/c3ccccc3)o2)cc1`
F

Identify the outcome logged in this assay for the compound shown: `CNC(=O)N1C[C@H]2C[C@H](C(=O)Nc3ccc4c(c3)OCO4)[C@@H](C1)O2`
T

Identify the outcome logged in this assay for the compound shown: c1cnc(Nc2cnc(C3CCCN(Cc4cnc[nH]4)C3)cn2)cn1 (stereo not given)
F

Identify the outcome logged in this assay for the compound shown: `CC(C)NS(=O)(=O)c1ccc(NC(=O)c2cccnc2)cc1`
F

Identify the outcome logged in this assay for the compound shown: COc1cccc(C2c3[nH]c4ccccc4c3C[C@@H]3C(=O)N(Cc4ccc5c(c4)OCO5)CC(=O)N23)c1 (stereo not given in full)
F

Identify the outcome logged in this assay for the compound shown: `CC(C)(C)n1nc(C2CC2)c(Br)c1NC(=O)c1ccccc1F`
F

Identify the outcome logged in this assay for the compound shown: `O=C(CSc1ncn[nH]1)NCc1ccc2c(c1)OCO2`
F

Identify the outcome logged in this assay for the compound shown: `COc1cc(C(=O)Nc2ccc(-c3nc4cnccc4o3)cc2)cc(OC)c1OC`
F

====

Biological target: Ubiquitin carboxyl-terminal hydrolase 8 (Homo sapiens)
Experiment: blocks human USP8 ubiquitin-rhodamine cleavage (AID 1645853)
Conditions: purified USP8, Ub-rhodamine cleavage fluorescence, 30 min; at 20 µM; stronger effect = higher value
In all, about 47,000 compounds went through this assay and about 2,000 (4.3%) were called active. The sample holds actives, similar compounds and a random draw of the others, so the mix is not that of the screen.
MEASURED ATTRIBUTE: inhibition

Param readout= inhibition; system= Ubiquitin carboxyl-terminal hydrolase 8 (Homo sapiens); entry= `COc1ccc(NC(=O)c2cc(S(=O)(=O)N3CCCCCC3)cn2C)cc1` ; returns value.
0.0121% (inactive)

Param readout= inhibition; system= Ubiquitin carboxyl-terminal hydrolase 8 (Homo sapiens); entry= `O=C(O)c1cc(-c2cccc3ccccc23)n[nH]1` ; returns value.
-80.6% (inactive)

Param readout= inhibition; system= Ubiquitin carboxyl-terminal hydrolase 8 (Homo sapiens); entry= `COc1ccc(-c2ccc3nc(N4CCC(C(N)=O)CC4)sc3n2)cc1` ; returns value.
-18.5% (inactive)

Param readout= inhibition; system= Ubiquitin carboxyl-terminal hydrolase 8 (Homo sapiens); entry= CCOC(=O)C1=C(CN2CCN(c3ccccc3OC)CC2)NC(=O)NC1c1cccc(OC)c1OC (configuration not stated) ; returns value.
-6.79% (inactive)

Param readout= inhibition; system= Ubiquitin carboxyl-terminal hydrolase 8 (Homo sapiens); entry= `COCCn1c(=O)[nH]c2cc(C(=O)NCc3ccc(Cl)cc3)ccc2c1=O` ; returns value.
-1.21% (inactive)

Param readout= inhibition; system= Ubiquitin carboxyl-terminal hydrolase 8 (Homo sapiens); entry= `Cc1cc(NC(=O)CSc2nccn2-c2ccc([N+](=O)[O-])cc2)no1` ; returns value.
-89.6% (inactive)

Param readout= inhibition; system= Ubiquitin carboxyl-terminal hydrolase 8 (Homo sapiens); entry= `CN1CCCN(C(=O)c2cc(-c3ccn(C)n3)n3ccccc23)CC1` ; returns value.
-22.2% (inactive)

Param readout= inhibition; system= Ubiquitin carboxyl-terminal hydrolase 8 (Homo sapiens); entry= `Cc1ccc(Cn2cc(-c3noc(-c4ccc[nH]4)n3)nn2)cc1` ; returns value.
35.7% (active)

Param readout= inhibition; system= Ubiquitin carboxyl-terminal hydrolase 8 (Homo sapiens); entry= `O=C(C1CCCCC1)N1CCN(c2ncnc3c2nnn3Cc2ccccc2)CC1` ; returns value.
6.37% (inactive)

Param readout= inhibition; system= Ubiquitin carboxyl-terminal hydrolase 8 (Homo sapiens); entry= `CN1[C@@H](CCC(=O)N2CCc3ccccc32)CNC(=O)[C@@H]2[C@H]1CCN2Cc1ncc[nH]1` ; returns value.
-8.85% (inactive)

Param readout= inhibition; system= Ubiquitin carboxyl-terminal hydrolase 8 (Homo sapiens); entry= CNc1cncc(C2CCCN2C(=O)Cc2ccc3c(c2)OCO3)n1 (configuration not stated) ; returns value.
-1.13% (inactive)

Param readout= inhibition; system= Ubiquitin carboxyl-terminal hydrolase 8 (Homo sapiens); entry= `O=C(COc1ccccc1)Nc1cnc(-c2cccc(Cl)c2)nc1` ; returns value.
60.7% (active)

Param readout= inhibition; system= Ubiquitin carboxyl-terminal hydrolase 8 (Homo sapiens); entry= Cc1nc(-c2cccc(NC(=O)C3CCN(c4ccccc4)C3=O)c2)no1 (configuration not stated) ; returns value.
27.7% (inactive)

Param readout= inhibition; system= Ubiquitin carboxyl-terminal hydrolase 8 (Homo sapiens); entry= O=C1NCCCCC1NS(=O)(=O)c1ccc2c(c1)OCCCO2 (configuration not stated) ; returns value.
-2.35% (inactive)

Param readout= inhibition; system= Ubiquitin carboxyl-terminal hydrolase 8 (Homo sapiens); entry= `Cc1cc(NC(C)C)n2ncc(-c3ccc(Cl)cc3)c2n1` ; returns value.
-13.7% (inactive)

Param readout= inhibition; system= Ubiquitin carboxyl-terminal hydrolase 8 (Homo sapiens); entry= `Nc1cc(C2CCN(C(=O)Cc3ccc(F)cc3)CC2)no1` ; returns value.
1.13% (inactive)

Param readout= inhibition; system= Ubiquitin carboxyl-terminal hydrolase 8 (Homo sapiens); entry= `CN1[C@@H](CCC(=O)NCc2ccc(F)cc2)CNC(=O)[C@@H]2[C@H]1CCN2CC1CC1` ; returns value.
-6.51% (inactive)

Param readout= inhibition; system= Ubiquitin carboxyl-terminal hydrolase 8 (Homo sapiens); entry= `COCCn1c(=O)[nH]c2cc(C(=O)NCCNc3ccc([N+](=O)[O-])cc3C#N)ccc2c1=O` ; returns value.
55.6% (active)

Param readout= inhibition; system= Ubiquitin carboxyl-terminal hydrolase 8 (Homo sapiens); entry= `COc1ccc(CC(=O)Nc2cnc(-c3ccccc3)nc2)cc1` ; returns value.
-7.3% (inactive)

Param readout= inhibition; system= Ubiquitin carboxyl-terminal hydrolase 8 (Homo sapiens); entry= `O=C(c1cnccn1)N1CC(C(=O)N2CCCC2)C1` ; returns value.
0.517% (inactive)

Param readout= inhibition; system= Ubiquitin carboxyl-terminal hydrolase 8 (Homo sapiens); entry= `Cc1ccc(CC(=O)N2CCN(C(=O)c3cc(-c4ccccn4)n[nH]3)CC2)cc1` ; returns value.
-164% (inactive)

Param readout= inhibition; system= Ubiquitin carboxyl-terminal hydrolase 8 (Homo sapiens); entry= `CS(=O)(=O)N(Cc1ccccc1F)c1ccc(Oc2ccc(N(Cc3ccccc3F)S(C)(=O)=O)cc2)cc1` ; returns value.
0.186% (inactive)

Param readout= inhibition; system= Ubiquitin carboxyl-terminal hydrolase 8 (Homo sapiens); entry= `Cc1c(-c2nn3c(-c4ccco4)nnc3s2)cccc1[N+](=O)[O-]` ; returns value.
89.2% (active)

Param readout= inhibition; system= Ubiquitin carboxyl-terminal hydrolase 8 (Homo sapiens); entry= `Cc1ccc(-n2cc(-c3noc(C(=O)Nc4ccc(F)cc4C)n3)nn2)cc1` ; returns value.
99% (active)

Param readout= inhibition; system= Ubiquitin carboxyl-terminal hydrolase 8 (Homo sapiens); entry= `CCc1ccccc1NS(=O)(=O)c1c(C)[nH]c(C)c1C(=O)N1CCCC1` ; returns value.
2.16% (inactive)

Param readout= inhibition; system= Ubiquitin carboxyl-terminal hydrolase 8 (Homo sapiens); entry= `Cc1ccc(-c2cn3ccn(-c4ccc(C)cc4C)c(=O)c3n2)cc1` ; returns value.
43% (active)

Param readout= inhibition; system= Ubiquitin carboxyl-terminal hydrolase 8 (Homo sapiens); entry= `CSc1cccc(NC(=O)COc2ccc(C(=O)c3ccccc3)cc2)c1` ; returns value.
-0.948% (inactive)

Param readout= inhibition; system= Ubiquitin carboxyl-terminal hydrolase 8 (Homo sapiens); entry= Cc1cc2c(cc1CNC(=O)c1ccc3c(c1)CC(C)O3)OCCCO2 (configuration not stated) ; returns value.
-4.91% (inactive)

Param readout= inhibition; system= Ubiquitin carboxyl-terminal hydrolase 8 (Homo sapiens); entry= `Cc1nn(-c2ccccc2)c(C)c1S(=O)(=O)N1CCN(c2ccccn2)CC1` ; returns value.
-28.5% (inactive)

Param readout= inhibition; system= Ubiquitin carboxyl-terminal hydrolase 8 (Homo sapiens); entry= `O=C(CSc1nnc(-c2cccnc2)o1)N1CCN(c2ccc(F)cc2)CC1` ; returns value.
19% (inactive)

Param readout= inhibition; system= Ubiquitin carboxyl-terminal hydrolase 8 (Homo sapiens); entry= `Cc1cccc(C(=O)Nc2ccc(-n3c(C)nc4ncccc4c3=O)cc2C)c1` ; returns value.
5.93% (inactive)

Param readout= inhibition; system= Ubiquitin carboxyl-terminal hydrolase 8 (Homo sapiens); entry= `COc1ccc(-c2nc(-c3nnn(Cc4cccc(F)c4)c3C)no2)cc1` ; returns value.
0.245% (inactive)

Param readout= inhibition; system= Ubiquitin carboxyl-terminal hydrolase 8 (Homo sapiens); entry= O=S(=O)(c1ccccc1)N1CCCCCC1C1CCN(Cc2nc(C3CC3)no2)CC1 (configuration not stated) ; returns value.
-3.93% (inactive)

Param readout= inhibition; system= Ubiquitin carboxyl-terminal hydrolase 8 (Homo sapiens); entry= `O=c1c(S(=O)(=O)c2cc(F)cc(F)c2)c[nH]c2ccc(F)cc12` ; returns value.
4.59% (inactive)

Param readout= inhibition; system= Ubiquitin carboxyl-terminal hydrolase 8 (Homo sapiens); entry= `CCC(=O)Nc1nc2cc(NC(=O)c3ccc(OC)cc3)ccc2s1` ; returns value.
47.8% (active)

Param readout= inhibition; system= Ubiquitin carboxyl-terminal hydrolase 8 (Homo sapiens); entry= Nc1cccc(C(=O)CC2(O)C(=O)N(CCc3ccccc3)c3ccccc32)c1 (configuration not stated) ; returns value.
-96.8% (inactive)

Param readout= inhibition; system= Ubiquitin carboxyl-terminal hydrolase 8 (Homo sapiens); entry= `Cc1ccc(Cn2cc(-c3noc(-c4ccccn4)n3)nn2)cc1` ; returns value.
-56.3% (inactive)

Param readout= inhibition; system= Ubiquitin carboxyl-terminal hydrolase 8 (Homo sapiens); entry= Cn1nc(C2CCCN(Cc3cc(F)cc(F)c3)C2)c2nccnc21 (configuration not stated) ; returns value.
32.7% (active)

Param readout= inhibition; system= Ubiquitin carboxyl-terminal hydrolase 8 (Homo sapiens); entry= Cc1cccc(-c2nnc3ccc(N4CCC(C(=O)NC(C)Cc5ccco5)CC4)nn23)c1 (configuration not stated) ; returns value.
-6.13% (inactive)

Param readout= inhibition; system= Ubiquitin carboxyl-terminal hydrolase 8 (Homo sapiens); entry= `CCOC(=O)c1c(NC(=O)c2ccco2)sc(Cc2ccc3c(c2)OCO3)c1C` ; returns value.
20.7% (inactive)

Param readout= inhibition; system= Ubiquitin carboxyl-terminal hydrolase 8 (Homo sapiens); entry= `CC1CCN(C(=O)c2ncn3c2CN(C)S(=O)(=O)c2ccccc2-3)CC1` ; returns value.
6.05% (inactive)

Param readout= inhibition; system= Ubiquitin carboxyl-terminal hydrolase 8 (Homo sapiens); entry= `Clc1cc2nc(N3CCN(c4ccccn4)CC3)c3nncn3c2cc1Cl` ; returns value.
75.6% (active)
